# assay-target: UniProt Q99572
# measurement-notes: Antagonist activity at human P2X7 receptor expressed in human U373 cells assessed as inhibition of BzATP-induced Yo-Pro uptake
# Type: functional, cell-based, U-373MG ATCC
pIC50: −log10 of the molar value.

| item-smiles | pIC50 |
| --- | --- |
| c1ccc(CCCC2=N[C@H](c3ccccc3)[C@H](c3ccccc3)N2)cc1 | 6.30 |
| Fc1ccccc1CC1=N[C@H](c2ccccc2)[C@H](c2ccccc2)N1 | 6.20 |
| Fc1cccc(CNC2=N[C@@H](c3cccc(F)c3)[C@@H](c3cccc(F)c3)N2)c1 | 7.20 |

---

# measurement-notes: Plasma clearance in Sprague-Dawley rat
# Type: ADME, organism-based
test-readout: clearance (L/h/kg)

| molecule | observed-measurement |
| --- | --- |
| COc1ccc(CC(=O)NC(N/C(=N/C#N)Nc2cccc3ncccc23)C(C)(C)C)cc1OC (stereo unspecified) | 3.72 |

---

# assay-target: P2X purinoceptor 7 (Homo sapiens)
# Sequence (Q99572 whole entry): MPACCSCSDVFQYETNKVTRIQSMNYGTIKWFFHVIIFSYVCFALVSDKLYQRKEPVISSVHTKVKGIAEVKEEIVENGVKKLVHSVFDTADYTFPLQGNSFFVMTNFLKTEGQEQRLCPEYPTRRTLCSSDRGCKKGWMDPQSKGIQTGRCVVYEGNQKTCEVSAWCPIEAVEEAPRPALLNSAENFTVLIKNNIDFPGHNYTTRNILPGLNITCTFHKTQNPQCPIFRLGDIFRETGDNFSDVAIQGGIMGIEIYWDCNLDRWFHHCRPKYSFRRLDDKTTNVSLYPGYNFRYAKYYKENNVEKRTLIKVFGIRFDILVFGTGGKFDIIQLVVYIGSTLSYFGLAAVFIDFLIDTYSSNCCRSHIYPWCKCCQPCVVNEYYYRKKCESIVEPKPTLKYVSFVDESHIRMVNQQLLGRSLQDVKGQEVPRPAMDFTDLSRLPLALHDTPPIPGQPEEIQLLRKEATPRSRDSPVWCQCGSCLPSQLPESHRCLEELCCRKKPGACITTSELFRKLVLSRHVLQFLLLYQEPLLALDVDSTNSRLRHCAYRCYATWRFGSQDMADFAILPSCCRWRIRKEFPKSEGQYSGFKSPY
# measurement-notes: Antagonist activity at P2X7 receptor in human THP1 cells assessed as inhibition of BzATP-induced ethidium uptake
# Assay type: functional, cell-based, THP-1
test-readout: log10 of IC50 (log10 of the value in nM)

| compound | assay-target | observed-measurement |
| --- | --- | --- |
| O=C(Cc1ccc(C(F)(F)F)c(F)c1)Nc1c(Cl)ccc2c(=O)n(CCO)ccc12 | P2X purinoceptor 7 (Homo sapiens) | 0.80 |
| O=C(Cc1cccc(C(F)(F)F)c1F)Nc1c(Cl)ccc2c(=O)n(C3CC3)ccc12 | P2X purinoceptor 7 (Homo sapiens) | -0.50 |
| Cc1ccc2c(NC(=O)C[C@H](C)c3ccccc3)c(Cl)ccc2n1 | P2X purinoceptor 7 (Homo sapiens) | 2.50 |
| CC(C)C(CO)n1ccc2c(NC(=O)CC34CC5CC(CC(C5)C3)C4)cccc2c1=O (stereo not given) | P2X purinoceptor 7 (Homo sapiens) | -1.30 |
| C[C@H](CO)n1ccc2c(NC(=O)Cc3ccc(Cl)c(C(F)(F)F)c3)cccc2c1=O | P2X purinoceptor 7 (Homo sapiens) | 0.10 |

---

# assay-target: P2X purinoceptor 7 (Rattus norvegicus)
# Sequence (Q64663 whole entry): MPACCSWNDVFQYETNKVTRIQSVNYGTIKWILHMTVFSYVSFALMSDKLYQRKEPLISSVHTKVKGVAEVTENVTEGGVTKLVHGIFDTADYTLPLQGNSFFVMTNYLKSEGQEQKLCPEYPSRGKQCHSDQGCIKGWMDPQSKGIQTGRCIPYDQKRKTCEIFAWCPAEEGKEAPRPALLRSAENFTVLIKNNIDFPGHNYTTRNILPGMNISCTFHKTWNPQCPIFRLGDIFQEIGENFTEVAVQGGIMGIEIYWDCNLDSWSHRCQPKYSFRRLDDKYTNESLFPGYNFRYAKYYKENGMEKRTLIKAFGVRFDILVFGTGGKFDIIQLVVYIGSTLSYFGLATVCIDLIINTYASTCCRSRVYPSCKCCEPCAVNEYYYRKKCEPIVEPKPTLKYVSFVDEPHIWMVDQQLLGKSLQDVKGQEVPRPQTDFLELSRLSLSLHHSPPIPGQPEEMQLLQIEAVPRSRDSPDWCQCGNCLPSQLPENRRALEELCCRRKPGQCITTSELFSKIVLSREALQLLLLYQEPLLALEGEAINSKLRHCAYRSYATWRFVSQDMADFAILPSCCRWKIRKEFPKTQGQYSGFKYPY
# measurement-notes: Activity at rat P2X7 receptor expressed in HEK cells assessed as effect on BzATP-induced ethidium uptake
pIC50: −log10 of the molar value.
// values below are reported pIC50
test-readout: pIC50

| compound | test-readout | observed-measurement |
| --- | --- | --- |
| O=C(NNc1cccc2ncccc12)C12CC3CC(CC(C3)C1)C2 | pIC50 | 7.40 |
| Clc1cccc(-n2ncnc2NCc2cccnc2N2CCCC2)c1Cl | pIC50 | 7.60 |
| Clc1cccc(-n2cnnc2NCc2cccnc2N2CCCC2)c1Cl | pIC50 | 7.90 |
| Cc1ccccc1Nc1ncnn1-c1cccc(Cl)c1Cl | pIC50 | 6.60 |
| Cc1ccccc1Cn1cnnc1-c1cccc(Cl)c1Cl | pIC50 | 6.70 |
| C=C1C2(C(=O)NNc3ccccc3)CCC(C2)C1(C)C (stereo unspecified) | pIC50 | 7.30 |

---

# assay-target: P2X purinoceptor 7 (Homo sapiens) (UniProt Q99572)
# details: HEK293, at 3 µM

| item-smiles | assay-target | unit-abbrev | sign-qualifier | inhibition |
| --- | --- | --- | --- | --- |
| CC(C)(C)OC(=O)N1CCN(C(=O)[C@H](Cc2ccc(OS(=O)(=O)c3cccc4cccnc34)cc2)NS(C)(=O)=O)CC1 | P2X purinoceptor 7 (Homo sapiens) (UniProt Q99572) | % | < | 10 |
| CC(C)(C)OC(=O)N1CCN(C(=O)[C@H](Cc2ccc(OS(=O)(=O)c3cccc4cccnc34)cc2)NS(=O)(=O)c2cccc3cnccc23)CC1 | P2X purinoceptor 7 (Homo sapiens) (UniProt Q99572) | % | = | 37 |
| CCC(=O)Oc1ccc(C[C@H](NC(=O)OCc2ccccc2)C(=O)N2CCN(C(=O)OC(C)(C)C)CC2)cc1 | P2X purinoceptor 7 (Homo sapiens) (UniProt Q99572) | % | < | 10 |
| CC(C)(C)OC(=O)N1CCN(C(=O)[C@H](Cc2ccc(OS(=O)(=O)c3cccc4cccnc34)cc2)NC(=O)OCc2ccccc2)CC1 | P2X purinoceptor 7 (Homo sapiens) (UniProt Q99572) | % | = | 53 |
| CCOC(=O)Oc1ccc(C[C@H](NC(=O)OCc2ccccc2)C(=O)N2CCN(C(=O)OC(C)(C)C)CC2)cc1 | P2X purinoceptor 7 (Homo sapiens) (UniProt Q99572) | % | < | 10 |
| O=C(N[C@@H](Cc1ccc(OS(=O)(=O)c2ccccc2)cc1)C(=O)N1CCN(S(=O)(=O)c2ccccc2)CC1)OCc1ccccc1 | P2X purinoceptor 7 (Homo sapiens) (UniProt Q99572) | % | < | 10 |
| CCC(=O)N1CCN(C(=O)[C@H](Cc2ccc(OS(=O)(=O)c3ccccc3)cc2)NC(=O)OCc2ccccc2)CC1 | P2X purinoceptor 7 (Homo sapiens) (UniProt Q99572) | % | < | 10 |
| CC(C)(C)OC(=O)N1CCN(C(=O)[C@H](Cc2ccc(O)cc2)NC(=O)OCc2ccccc2)CC1 | P2X purinoceptor 7 (Homo sapiens) (UniProt Q99572) | % | < | 10 |
| CC(C)(C)OC(=O)N1CCN(C(=O)[C@H](Cc2ccc(OS(=O)(=O)c3ccccc3)cc2)NC(=O)OCc2ccccc2)CC1 | P2X purinoceptor 7 (Homo sapiens) (UniProt Q99572) | % | = | 59 |
| CC(C)(C)OC(=O)N1CCN(C(=O)[C@H](Cc2ccc(OS(=O)(=O)c3cccc4cccnc34)cc2)NC(=O)c2ccccc2)CC1 | P2X purinoceptor 7 (Homo sapiens) (UniProt Q99572) | % | = | 13 |
| CC(C)(C)OC(=O)N1CCN(C(=O)[C@H](Cc2ccc(OS(=O)(=O)c3cccc4cnccc34)cc2)NC(=O)OCc2ccccc2)CC1 | P2X purinoceptor 7 (Homo sapiens) (UniProt Q99572) | % | = | 43 |
| CCOC(=O)N[C@@H](Cc1ccc(OS(=O)(=O)c2cccc3cccnc23)cc1)C(=O)N1CCN(C(=O)OC(C)(C)C)CC1 | P2X purinoceptor 7 (Homo sapiens) (UniProt Q99572) | % | < | 10 |
| CC(C)(C)OC(=O)N1CCN(C(=O)[C@H](Cc2ccc(OS(=O)(=O)c3cccc4cccnc34)cc2)NS(=O)(=O)c2ccccc2)CC1 | P2X purinoceptor 7 (Homo sapiens) (UniProt Q99572) | % | < | 10 |
| Cc1ccc(S(=O)(=O)N[C@@H](Cc2ccc(OS(=O)(=O)c3cccc4cccnc34)cc2)C(=O)N2CCN(C(=O)OC(C)(C)C)CC2)cc1 | P2X purinoceptor 7 (Homo sapiens) (UniProt Q99572) | % | = | 32 |
| CC(C)(C)OC(=O)N1CCN(C(=O)[C@H](Cc2ccc(OC(=O)c3ccccc3)cc2)NC(=O)OCc2ccccc2)CC1 | P2X purinoceptor 7 (Homo sapiens) (UniProt Q99572) | % | = | 47 |
| O=C(N[C@@H](Cc1ccc(OS(=O)(=O)c2ccccc2)cc1)C(=O)N1CCN(C(=O)c2ccccc2)CC1)OCc1ccccc1 | P2X purinoceptor 7 (Homo sapiens) (UniProt Q99572) | % | = | 78 |
| Cc1ccc(S(=O)(=O)Oc2ccc(C[C@H](NC(=O)OCc3ccccc3)C(=O)N3CCN(C(=O)OC(C)(C)C)CC3)cc2)cc1 | P2X purinoceptor 7 (Homo sapiens) (UniProt Q99572) | % | = | 71 |
| COc1ccc(S(=O)(=O)Oc2ccc(C[C@H](NC(=O)OCc3ccccc3)C(=O)N3CCN(C(=O)OC(C)(C)C)CC3)cc2)cc1 | P2X purinoceptor 7 (Homo sapiens) (UniProt Q99572) | % | = | 62 |
| CN([C@@H](Cc1ccc(OS(=O)(=O)c2cccc3cnccc23)cc1)C(=O)N1CCN(c2ccccc2)CC1)S(=O)(=O)c1cccc2cnccc12 | P2X purinoceptor 7 (Homo sapiens) (UniProt Q99572) | % | = | 85 |
| CC(C)(C)OC(=O)N1CCN(C(=O)[C@H](Cc2ccc(OS(C)(=O)=O)cc2)NC(=O)OCc2ccccc2)CC1 | P2X purinoceptor 7 (Homo sapiens) (UniProt Q99572) | % | < | 10 |
| CC(C)(C)OC(=O)N1CCN(C(=O)[C@H](Cc2ccc(OS(=O)(=O)c3cccc4cccnc34)cc2)NS(=O)(=O)c2cccc3cccnc23)CC1 | P2X purinoceptor 7 (Homo sapiens) (UniProt Q99572) | % | = | 61 |
| O=C(N[C@@H](Cc1ccc(OS(=O)(=O)c2ccccc2)cc1)C(=O)N1CCN(C(=O)OCc2ccccc2)CC1)OCc1ccccc1 | P2X purinoceptor 7 (Homo sapiens) (UniProt Q99572) | % | = | 48 |
| CC(C)(C)OC(=O)N1CCN(C(=O)[C@H](Cc2ccc(OC(=O)OCc3ccccc3)cc2)NC(=O)OCc2ccccc2)CC1 | P2X purinoceptor 7 (Homo sapiens) (UniProt Q99572) | % | < | 10 |
| CC(C)(C)OC(=O)N1CCN(C(=O)[C@@H](N)Cc2ccc(OS(=O)(=O)c3cccc4cccnc34)cc2)CC1 | P2X purinoceptor 7 (Homo sapiens) (UniProt Q99572) | % | < | 10 |
